# Species: Rattus norvegicus
# protocol_text: Open TG-GATES - Regimen: Daily Repeat
# Format: toxicity, organism-based, Sprague-Dawley
# Design: regimen Daily Repeat, gender Male, age 6 weeks
# condition_context: in vivo, po, 10 mg/kg, […], tissue Plasma, route gavage, dose level Low, time 7 day
endpoint: LDH (IU/L)
Give bare numbers, in IU/L.

A selection of reference data follows.
CN(C)CCCN1c2ccccc2CCc2ccccc21	123.4
CC(C)OC(=O)C(C)(C)Oc1ccc(C(=O)c2ccc(Cl)cc2)cc1 [FENOFIBRATE]	101.2
CC1=C(/C=C/C(C)=C/C=C/C(C)=C/CO)C(C)(C)CCC1	216

Now for another entry.
[Q] Give the reported LDH for this compound. CN(C)CCN(Cc1cccs1)c1ccccn1
[A] 183.8

====

For each of the molecules below, state its Ht.
# Species on record: Rattus norvegicus
# protocol_text: Open TG-GATES - Regimen: Single
# Type: toxicity, organism-based, Sprague-Dawley
# Parameters: regimen Single, gender Male, age 6 weeks
# condition_context: in vivo, po, 30 mg/kg, 3 h, tissue Blood, route gavage, dose level Middle
Give bare numbers, in %.

A selection of reference data follows.
CN(C)CCCN1c2ccccc2CCc2ccc(Cl)cc21 [CLOMIPRAMINE]	43.6
CC1=C(/C=C/C(C)=C/C=C/C(C)=C/CO)C(C)(C)CCC1 [RETINOL]	38.6
CN(C)CCCN1c2ccccc2CCc2ccccc21 [IMIPRAMINE]	42.7

Now for another entry.
[Q] Give the reported Ht for this molecule. CN(C)CCN(Cc1cccs1)c1ccccn1
[A] 39.6

====

# Species on record: Rattus norvegicus
# protocol_text: Open TG-GATES - Regimen: Daily Repeat
# Assay type: toxicity, organism-based, Sprague-Dawley
# Design: regimen Daily Repeat, gender Male, age 6 weeks
# condition_context: in vivo, po, 300 mg/kg, […], route gavage, dose level Middle, time 7 day
For each of the compounds below, state its TERMINAL_BW.
Give bare numbers, in g.

A selection of reference data follows.
NC(N)=Nc1nc(CSCCC(N)=NS(N)(=O)=O)cs1	261.1
CCOc1ccc(NC(=O)CC(C)O)cc1 (stereo not given)	289.1
COc1ccc2[nH]c([S+]([O-])Cc3ncc(C)c(OC)c3C)nc2c1 (stereo not given)	269.3
CCOC(=O)CCC(=O)O[C@H]1[C@H](O[C@@H]2[C@@H](C)[C@H](O[C@H]3C[C@@](C)(OC)[C@@H](O)[C@H](C)O3)[C@@H](C)C(=O)O[C@H](CC)[C@@](C)(O)[C@H](O)[C@@H](C)C(=O)[C@H](C)C[C@@]2(C)O)O[C@H](C)C[C@@H]1N(C)C [ERYTHROMYCIN ETHYLSUCCINATE]	269.9

Now for another entry.
[Q] Give the reported TERMINAL_BW for this compound. COC1=CC(=O)C[C@@H](C)[C@]12Oc1c(Cl)c(OC)cc(OC)c1C2=O
[A] 261.2

====

# Species on record: Rattus norvegicus
# protocol_text: Open TG-GATES - Regimen: Single
# Format: toxicity, organism-based, Sprague-Dawley
# Design: regimen Single, gender Male, age 6 weeks
# condition_context: in vivo, po, 10 mg/kg, 9 h, tissue Kidney, route gavage, dose level Low
endpoint: KIDNEY_L (g)
One number for each entry, in g.

A selection of reference data follows.
CN(C)CCCN1c2ccccc2CCc2ccccc21	0.9
CC1=C(/C=C/C(C)=C/C=C/C(C)=C/CO)C(C)(C)CCC1	0.9
CN(C)CCCN1c2ccccc2CCc2ccc(Cl)cc21	1
CN(C)CCN(Cc1cccs1)c1ccccn1	0.8

Now for another entry.
[Q] Give the reported KIDNEY_L for this molecule. CC(C)OC(=O)C(C)(C)Oc1ccc(C(=O)c2ccc(Cl)cc2)cc1 [FENOFIBRATE]
[A] 0.8

====

# Species on record: Rattus norvegicus
# protocol_text: Open TG-GATES - Regimen: Single
# Type: toxicity, organism-based, Sprague-Dawley
# Design: regimen Single, gender Male, age 6 weeks
# condition_context: in vivo, po, 1000 mg/kg, 6 h, tissue Plasma, route gavage, dose level High
endpoint: RALB (g/dL)
Numbers only, in g/dL.

A selection of reference data follows.
COc1ccc2[nH]c([S+]([O-])Cc3ncc(C)c(OC)c3C)nc2c1 (stereo not given) [OMEPRAZOLE]	3.3
CCOC(=O)CCC(=O)O[C@H]1[C@H](O[C@@H]2[C@@H](C)[C@H](O[C@H]3C[C@@](C)(OC)[C@@H](O)[C@H](C)O3)[C@@H](C)C(=O)O[C@H](CC)[C@@](C)(O)[C@H](O)[C@@H](C)C(=O)[C@H](C)C[C@@]2(C)O)O[C@H](C)C[C@@H]1N(C)C [ERYTHROMYCIN ETHYLSUCCINATE]	2.9
CC(C)OC(=O)C(C)(C)Oc1ccc(C(=O)c2ccc(Cl)cc2)cc1 [FENOFIBRATE]	2.5

Look up RALB for the entries below, preserving their order.
1. COC1=CC(=O)C[C@@H](C)[C@]12Oc1c(Cl)c(OC)cc(OC)c1C2=O [GRISEOFULVIN]
2. NC(N)=Nc1nc(CSCCC(N)=NS(N)(=O)=O)cs1 [FAMOTIDINE]

[A]
1: 3.3; 2: 3.4

====

For each of the compounds below, state its K.
# Organism: Rattus norvegicus
# protocol_text: Open TG-GATES - Regimen: Single
# Assay type: toxicity, organism-based, Sprague-Dawley
# Parameters: regimen Single, gender Male, age 6 weeks
# condition_context: in vivo, po, 10 mg/kg, 9 h, tissue Plasma, route gavage, dose level Low
Numbers only, in meq/L.

A selection of reference data follows.
CC(C)OC(=O)C(C)(C)Oc1ccc(C(=O)c2ccc(Cl)cc2)cc1 [FENOFIBRATE]	3.9
CN(C)CCCN1c2ccccc2CCc2ccc(Cl)cc21	4
CN(C)CCCN1c2ccccc2CCc2ccccc21	4.1

Look up K for the entries below, preserving their order.
1. CC1=C(/C=C/C(C)=C/C=C/C(C)=C/CO)C(C)(C)CCC1
2. CN(C)CCN(Cc1cccs1)c1ccccn1

[A]
4
4.2

====

# Species on record: Rattus norvegicus
# protocol_text: Open TG-GATES - Regimen: Single
# Format: toxicity, organism-based, Sprague-Dawley
# Parameters: regimen Single, gender Male, age 6 weeks
# condition_context: in vivo, po, 100 mg/kg, 24 h, tissue Plasma, route gavage, dose level High
For each of the compounds below, state its LDH.
The reply must contain the numeric value and, after it, the unit.

CN(C)CCN(Cc1cccs1)c1ccccn1	260.2 IU/L
CC1=C(/C=C/C(C)=C/C=C/C(C)=C/CO)C(C)(C)CCC1	242.4 IU/L
CN(C)CCCN1c2ccccc2CCc2ccc(Cl)cc21	92 IU/L

Now for another entry.
[Q] Give the reported LDH for this compound. CN(C)CCCN1c2ccccc2CCc2ccccc21
[A] 62.8 IU/L

====

# Species on record: Rattus norvegicus
# protocol_text: Open TG-GATES - Regimen: Single
# Assay type: toxicity, organism-based, Sprague-Dawley
# Parameters: regimen Single, gender Male, age 6 weeks
# condition_context: in vivo, po, 100 mg/kg, 3 h, tissue Plasma, route gavage, dose level Low
endpoint: TG (mg/dL)
Answers are plain numbers, in mg/dL.

A selection of reference data follows.
NC(N)=Nc1nc(CSCCC(N)=NS(N)(=O)=O)cs1	56.6
COc1ccc2[nH]c([S+]([O-])Cc3ncc(C)c(OC)c3C)nc2c1 (centres undefined)	86.6
CCOC(=O)CCC(=O)O[C@H]1[C@H](O[C@@H]2[C@@H](C)[C@H](O[C@H]3C[C@@](C)(OC)[C@@H](O)[C@H](C)O3)[C@@H](C)C(=O)O[C@H](CC)[C@@](C)(O)[C@H](O)[C@@H](C)C(=O)[C@H](C)C[C@@]2(C)O)O[C@H](C)C[C@@H]1N(C)C [ERYTHROMYCIN ETHYLSUCCINATE]	70.2

Now for another entry.
[Q] Give the reported TG for this molecule. COC1=CC(=O)C[C@@H](C)[C@]12Oc1c(Cl)c(OC)cc(OC)c1C2=O
[A] 131.4

====

For each of the compounds below, state its K.
# Species: Rattus norvegicus
# protocol_text: Open TG-GATES - Regimen: Daily Repeat
# Assay type: toxicity, organism-based, Sprague-Dawley
# Parameters: regimen Daily Repeat, gender Male, age 6 weeks
# condition_context: in vivo, po, 1000 mg/kg, […], tissue Plasma, route gavage, dose level High, time 7 day
One number for each entry, in meq/L.

A selection of reference data follows.
COC1=CC(=O)C[C@@H](C)[C@]12Oc1c(Cl)c(OC)cc(OC)c1C2=O	3.8
CC(C)OC(=O)C(C)(C)Oc1ccc(C(=O)c2ccc(Cl)cc2)cc1 [FENOFIBRATE]	4.4

Look up K for the entries below, preserving their order.
1. CCOC(=O)CCC(=O)O[C@H]1[C@H](O[C@@H]2[C@@H](C)[C@H](O[C@H]3C[C@@](C)(OC)[C@@H](O)[C@H](C)O3)[C@@H](C)C(=O)O[C@H](CC)[C@@](C)(O)[C@H](O)[C@@H](C)C(=O)[C@H](C)C[C@@]2(C)O)O[C@H](C)C[C@@H]1N(C)C [ERYTHROMYCIN ETHYLSUCCINATE]
2. CCOc1ccc(NC(=O)CC(C)O)cc1 (stereo not given)
3. COc1ccc2[nH]c([S+]([O-])Cc3ncc(C)c(OC)c3C)nc2c1 (stereo not given)

[A]
1: 4.1; 2: 4.4; 3: 3.9
